Test system: SUDIPGXIX (diffuse intrinsic pontine glioma line)
protocol notes: area under dose-response curve of % growth inhibition (log2 RLU vs DMSO / staurosporine), 1e-11 to 1e-4 M (% x log10 M); higher = more growth inhibition
For each of the compounds below, state its area under dose-response curve.
Reply briefly: the number, and no unit.

# area under dose-response curve (compound: CC(C)C[C@H](NC(=O)[C@H](CCc1ccccc1)NC(=O)CN1CCOCC1)C(=O)N[C@@H](Cc1ccccc1)C(=O)N[C@@H](CC(C)C)C(=O)[C@@]1(C)CO1 [CARFILZOMIB] ) is 294

# area under dose-response curve (compound: CO[C@H]1C[C@@H]2CC[C@@H](C)[C@@](O)(O2)C(=O)C(=O)N2CCCC[C@H]2C(=O)O[C@H]([C@H](C)C[C@@H]2CC[C@@H](OC(=O)C(C)(CO)CO)[C@H](OC)C2)CC(=O)[C@H](C)/C=C(\C)[C@@H](O)[C@@H](OC)C(=O)[C@H](C)C[C@H](C)/C=C/C=C/C=C/1C [TEMSIROLIMUS] ) is 116

# area under dose-response curve (compound: C=CCNC1=C2C[C@@H](C)C[C@H](OC)[C@H](O)[C@@H](C)/C=C(\C)[C@H](OC(N)=O)[C@@H](OC)/C=C\C=C(/C)C(=O)NC(=CC1=O)C2=O [TANESPIMYCIN] ) is 214

# area under dose-response curve (compound: CC(C)C[C@H](NC(=O)[C@H](Cc1ccccc1)NC(=O)c1cnccn1)B(O)O [BORTEZOMIB] ) is 568

# area under dose-response curve (compound: CCNC(=O)c1noc(-c2cc(C(C)C)c(O)cc2O)c1-c1ccc(CN2CCOCC2)cc1 [NVP-AUY922] ) is 274

# area under dose-response curve (compound: Nc1ccccc1NC(=O)c1ccc(CNc2nccc(-c3cccnc3)n2)cc1 [MOCETINOSTAT] ) is 147
